system: NSC34 cells; experiment: Neurite outgrowth of NSC34 cells cultured in Sol8-NogoA conditioned medium; type: cell-based, mouse; conditions: Sol8-NogoA CM with peptide 66 ng/ml, 48 hours; PBS in Sol8-NogoA CM 53.6 μm, PBS in Sol8 CM 99.4 μm
READOUT_TYPE: neurite length of NSC34 cells (μm)
Answers are plain numbers, in μm.

Some solved entries appear below for comparison.
RESIDUE_CODES	RESULT_UNITS	neurite length of NSC34 cells
WEAFARGTRALMDEVV [FD3, mutant of FD1, lysine at position 9 substituted with arginine]	μm	88.2
WEAFARGTKALMRQVV [FD4, mutant of FD1, D13 substituted with R and E14 with Q]	μm	95.8
WEAFARGTKPLMDEVV [FD2, mutant of FD1, alanine at position 10 substituted with proline]	μm	66.6

API: the following record is the query input.
Inquiry: Any idea what neurite length of NSC34 cells was measured for WEAFARGTKALMDEVV [FD1, short peptide derived from human PGK1, 16 a.a] ?
Reply text: 89.2
